# System: HCT-116 colon
# protocolNotes: NCI-60 one-dose screen, 48 h
# details: 10 µM unless noted
# Description: Growth inhibition of the HCT-116 human tumor cell line is measured as a screen for anti-cancer activity. Cells are grown in 96 well plates and exposed to the test compound for 48 hours. Compounds are tested at a single concentration, which is 10^-5 M for most compounds. The reported endpoint is percent growth (GI% or GIPRCNT), where numbers from 0 - 100% represent growth inhibition, and numbers from -100% - 0 represent cell death. For example, a value of 40 represents 60% growth inhibition. […]
This is part of a sample that, as a whole, favours compounds with a hit. Of some 83,000 tested, about 20% had one in any assay. Active and inactive are the calls of the source. The calls were made as follows: active = growth percent below 10; inactive = the rest.
Classes used: active, inactive

Cc1c(O)c(O)cc2c3c(oc12)CC(c1ccc2c(c1)OCO2)CC3=O (stereo not given) : inactive
[2H]C([2H])([2H])Oc1cc(F)ccc1/C=C/C(=O)/C=C(/C=C/c1ccc(F)cc1OC([2H])([2H])[2H])OB(F)F : active
O=C1C(=C(O)c2ccccc2)C(=O)c2ccccc21 : inactive
C=CCN1C=CC(=O)[C@H](O[Si](C)(C)C(C)(C)C)[C@@H]1/C=C/c1ccccc1 : active
COc1cc(Nc2nc3ccccc3cc2C(=O)Nc2ccc(F)c(F)c2)cc(OC)c1OC : active

* * *

# Tested on: HS 578T breast
# protocolNotes: NCI-60 one-dose screen, 48 h
# details: 10 µM unless noted
This is part of a sample that, as a whole, favours compounds with a hit. Of some 83,000 tested, about 20% had one in any assay. Calls of active or inactive are those of the source. How the source made its calls: active means growth percent below 10; inactive means the rest.
Classes used: Yes = active, No = inactive

COc1ccc(-c2nc(Cl)c3c(C)nn(-c4ccc(F)cc4)c3n2)cc1 : No
CCCN1C(=O)/C(=c2\sc3n(c2=O)C2C(NN=3)N(CC)C(=O)N2CC)c2ccccc21 (stereo not drawn) : No
CCOC(=O)C1=C(C)N=C2SC=C(c3ccc(F)cc3)N2[C@H]1c1cn(-c2ccccc2)nc1-c1ccc(Cl)cc1 : No
Cc1cccc(-c2nnc(SCC(=O)Nc3ncc(Cc4ccccc4)s3)n2N2C(=O)CSC2=S)c1 : Yes
Cc1c(CC(=O)OCCO)cc(-c2ccc(Cl)cc2)n1-c1ccccc1 : No
COc1cc(/C=C2\C(=O)N(CCCCn3c4ccccc4c(=O)c4ccccc43)c3ccccc32)cc(OC)c1O : No
O=C(Nc1ccc2ncsc2c1)c1csc(Nc2ccc3[nH]ncc3c2)n1 : No
COc1cc2nc3cc([N+](=O)[O-])ccc3c(NCCNCC(C)(C)O)c2cc1OC : Yes
Cc1cc2nc(C(Cl)Cl)nc(-c3ccc(Cl)cc3)n2n1 : Yes
CCCCCO/N=C\c1c2c(O)c3c(O)c(C)c4c(c3c1O)C(=O)C(C)(O/C=C\C(OC)C(C)C(OC(C)=O)C(C)C(O)C(C)C(O)C(C)/C=C\C=C(\C)C(=O)N2)O4 (stereo not drawn) : Yes
COc1cc(CNC(=O)CCCC/C=C/C(C)C)ccc1OCc1cn(-c2ccc([N+](=O)[O-])cc2)nn1 : No
Cc1ccc(-c2nc3nc(-c4ccc(Br)cc4)nc(N4CCCNCC4)c3o2)cc1 : Yes
C[N+]1=C(/C=C\C=C\c2ccccc2)C(C)(C)c2ccccc21 : No
COC1=CC(c2ccc[nH]2)=N/C1=C\c1[nH]c(C)c(C(=O)Oc2ccccc2)c1C : Yes
Cc1ccc(Nc2nc(-c3cc(O)c(C)c(C)c3O)cs2)cc1 : No
Nc1nc(N)c2c(n1)NC(c1cccc(Nc3ccnc4cc(C(F)(F)F)ccc34)c1)CC(c1ccc(F)cc1)=N2 (stereo not drawn) : No
Nc1n[nH]c2cccc(C#Cc3cccc(C(=O)Nc4ccc(CN5CCOCC5)c(C(F)(F)F)c4)c3)c12 : No
CC[C@]12CN3CCc4c([nH]c5ccccc45)[C@@](C(=O)OC)(c4cc5c(cc4OC)N(C)[C@H]4[C@@](O)(C(=O)OC)[C@H](OC(C)=O)[C@]6(CC)C=CCN7CC[C@]54[C@@H]76)CC(C3)[C@H]1O2 (stereo partly drawn) : Yes

* * *

Each entry below lists one item and its recorded growth value.
# Tested on: SK-MEL-5 melanoma
# protocolNotes: NCI-60 one-dose screen, 48 h (100 = growth as untreated, 0 = no growth, -100 = all killed)
# details: 100 µM
This is part of a sample that, as a whole, favours compounds with a hit. Of some 83,000 tested, about 20% had one in any assay. Calls of active or inactive are those of the source. How the source made its calls: active means growth percent below 10; inactive means the rest.
experimentalEndpoint: growth

CC(=O)/C=C/c1ccc(OCc2ccc(C(C)(C)C)cc2)cc1 : -6.85% (active)
O=C(/C=C/c1cccc(Oc2ccc(Cl)cc2)c1)c1ccccc1 : -97.3% (active)
CC(=O)/C=C/c1ccc(N(CCO)Cc2ccc(C(C)(C)C)cc2)cc1 : -99.5% (active)
CC(=O)/C=C/c1ccc(OCc2ccc(Cl)cc2)cc1 : -37% (active)

* * *

# Test system: HCC-2998 colon
# protocolNotes: NCI-60 one-dose screen, 48 h (100 = growth as untreated, 0 = no growth, -100 = all killed)
# details: 10 µM
Compounds without any hit were thinned out: in the full panel of roughly 83,000, 20% have a hit.
experimentalEndpoint: growth (%)

O=C(/C=C/c1cccc(Oc2ccc(Cl)cc2)c1)c1ccccc1 : 107
CC(=O)/C=C/c1ccc(N(CCO)Cc2ccc(C(C)(C)C)cc2)cc1 : 86.7
CC(=O)/C=C/c1ccc(OCc2ccc(Cl)cc2)cc1 : 101
CCN(Cc1ccccc1)c1ccc(/C=C2\COc3ccccc3C2=O)cc1 : 102
COc1ccc(C(=O)/C=C/c2ccc(OCc3cccc(C(F)(F)F)c3)c(OC)c2)cc1OC : 105
COc1ccc(C(=O)/C=C/c2ccc(OCc3ccc(Cl)cc3)cc2)cc1OC : 101

* * *

# Tested on: SF-295 CNS
# protocolNotes: NCI-60 one-dose screen, 48 h (100 = growth as untreated, 0 = no growth, -100 = all killed)
# details: 10 µM unless noted
This is part of a sample that, as a whole, favours compounds with a hit. Of some 83,000 tested, about 20% had one in any assay.
experimentalEndpoint: growth (%)

O=C(NNc1ccccc1)C1CCCN1 (stereo unspecified) : 85
CONC1=Nc2cc(NC(N)=NCc3ccccc3)c(N(C)C3CCCCC3)cc2OC1 : 83.3
Cc1nc2sc(C(=O)Nc3cccc4ncccc34)c(N)c2cc1C(C)O (stereo unspecified) : 59.8
Nc1n[nH]c2cccc(C#Cc3cccc(C(=O)Nc4ccc(CN5CCOCC5)c(C(F)(F)F)c4)c3)c12 : 2.26
O=S(=O)(Nc1ccc(F)cc1)c1ccc(-c2cnc(C3CC3)o2)cc1 : 30.2
C/C(=C(\c1ccc(OCCN2CCOCC2)cc1)c1ccc(OC(=O)C2CCCCC2)cc1)c1ccc(Cl)cc1 : 106
Cc1nn(-c2nc(-c3cc4ccccc4oc3=O)cs2)c(C)c1N=Nc1ccccc1 : 104
C#CCOCC1CN(C)C(=O)O1 (stereo unspecified) : 105
CCOC(=O)c1nnn(Cc2cc(=O)oc3c2ccc2ccccc23)c1C : 98.8
CN(Cc1ccccc1)c1nc(Cl)c(C2CC(c3ccc(F)cc3)=NN2C=O)s1 (stereo unspecified) : 92.2
CN(C)CCCn1c2nc(=O)[nH]c(=O)c-2nc2cc(Cl)c(Cl)cc21 : 99.3
O=C(N=Nc1c(O)[nH]c2ccccc12)Nc1ccc(Br)cc1 : 93
COc1cc(/C=C/C(=O)c2ccc(NC(=O)CSc3nnc(-c4cc(-c5ccccc5)nc5ccccc45)n3-c3ccccc3)cc2)cc(OC)c1OC : 96.6
CCOC(=O)c1ccc(Nc2ncnc3c2cnn3-c2cccc(F)c2)cc1 : 100
CCCCCCNC(=O)Oc1ccc(/C(=C(/CC)Cc2ccccc2)c2ccc(OCCCN(C)C)cc2)cc1 : 116
CC(=O)c1c(C)nc(SCC(=O)Nc2ccc(Cl)cc2)n1-c1ccc(Cl)cc1 : 91.3
O=C1C=C(Nc2ccccc2)c2ncccc2C1=O : -97.5
COc1nc2ccc(C)cc2cc1/C=[N+](\[O-])c1ccccc1 : 90.3
CC(=O)N1N=C(c2ccc(Nc3nc(Nc4ccc(F)cc4)nc(Nc4ccc(F)cc4)n3)cc2)CC1c1ccccc1 (stereo unspecified) : 132
Cc1nc2sc(C(=O)Nc3cccc(Cl)c3C)c(N)c2cc1C(O)c1ccccc1 (stereo unspecified) : 26.9
COc1ccccc1/C=C1\COc2ccc(O)cc2C1=O : 104

* * *

# System: OVCAR-5 ovarian
# protocolNotes: NCI-60 one-dose screen, 48 h
# details: 10 µM unless noted
Compounds without any hit were thinned out: in the full panel of roughly 83,000, 20% have a hit. Active and inactive are the calls of the source. The calls were made as follows: active = growth percent below 10; inactive = the rest.
Classes used: active, inactive

Cc1[nH]c(C(=O)Nc2nc3ccc(NC(=O)CCN)cc3s2)c(Cl)c1Cl : inactive
O=C(Nc1ccc2ncsc2c1)c1csc(Nc2ccc3[nH]ncc3c2)n1 : inactive
CC12OC(CC(O)C1O)n1c3ccccc3c3c4c(c5c6ccccc6n2c5c31)C(=O)N(CCN1CCOCC1)C4=O (stereo not given) : inactive
COc1cc(Cl)cc(-c2nn(C(=O)NS(=O)(=O)c3ccc(Cl)cc3)cc2-c2ccncc2)c1 : inactive
COc1nc(=O)n(C2C=CC(=O)O2)cc1F (stereo not given) : inactive
Cc1ccc(C(=O)c2ccc(CC(=O)N=Nc3c(O)[nH]c4ccc(OC(F)(F)F)cc34)n2C)cc1 : inactive
O=C(/C=C/c1ccc(F)cc1)Nc1ncc(Cc2ccc(F)cc2)s1 : inactive
Cc1ccc(-c2nc3nc(-c4ccccc4)nc(N4CCCNCC4)c3o2)cc1 : active
CC/C=C\C/C=C\C[C@H](O)C/C=C1/C(=O)C=C[C@@H]1C/C=C\CCCC(=O)OC : inactive
O=C(Cn1cc(CN2CCN(c3ccnc4cc(Cl)ccc34)CC2)nn1)Nc1cccc([N+](=O)[O-])c1 : inactive
Cc1ccc(-c2nc3nc(-c4ccccc4)nc(N4CCN(S(=O)(=O)c5ccccc5)CC4)c3o2)cc1 : inactive
Cc1ccc(S(=O)(=O)Nc2cc(Sc3ccccc3)c(O)c3ccccc23)cc1 : inactive
Nc1ccc(-c2nc3ccc4[nH]ncc4c3c3c2CCCC3)cc1F : inactive
COc1cc2ncnc(Nc3ccc(F)c(Cl)c3)c2cc1OCC(=O)N1CCCCC1 : inactive
Cc1cc(N2CCCCC2)nc(NCc2cc(Nc3ccnc4cc(Cl)ccc34)ccc2F)n1 : active
COC1=CC(c2ccc[nH]2)=N/C1=C\c1[nH]c(C)c(C(=O)Oc2ccccc2)c1C : active
Cn1cc(-c2nonc2-c2cn(C)c3ccc(Br)cc23)c2ccccc21 : inactive
Cc1ccc(-c2nc3nc(-c4ccc(F)cc4)nc(N4CCCNCC4)c3o2)cc1 : active
COc1ccc(N2CCN(S(=O)(=O)c3oc(-c4ccccc4)nc3C#N)CC2)cc1 : inactive
CCNC(=O)Nc1ncccc1OCc1ccc(F)cc1 : inactive

Where these numbers come from: PubChem BioAssay (NCI)
